// data source = ChEMBL document CHEMBL3886193

# testSystem: Sodium channel protein type 9 subunit alpha (Homo sapiens)
# Sequence (Q15858 whole entry): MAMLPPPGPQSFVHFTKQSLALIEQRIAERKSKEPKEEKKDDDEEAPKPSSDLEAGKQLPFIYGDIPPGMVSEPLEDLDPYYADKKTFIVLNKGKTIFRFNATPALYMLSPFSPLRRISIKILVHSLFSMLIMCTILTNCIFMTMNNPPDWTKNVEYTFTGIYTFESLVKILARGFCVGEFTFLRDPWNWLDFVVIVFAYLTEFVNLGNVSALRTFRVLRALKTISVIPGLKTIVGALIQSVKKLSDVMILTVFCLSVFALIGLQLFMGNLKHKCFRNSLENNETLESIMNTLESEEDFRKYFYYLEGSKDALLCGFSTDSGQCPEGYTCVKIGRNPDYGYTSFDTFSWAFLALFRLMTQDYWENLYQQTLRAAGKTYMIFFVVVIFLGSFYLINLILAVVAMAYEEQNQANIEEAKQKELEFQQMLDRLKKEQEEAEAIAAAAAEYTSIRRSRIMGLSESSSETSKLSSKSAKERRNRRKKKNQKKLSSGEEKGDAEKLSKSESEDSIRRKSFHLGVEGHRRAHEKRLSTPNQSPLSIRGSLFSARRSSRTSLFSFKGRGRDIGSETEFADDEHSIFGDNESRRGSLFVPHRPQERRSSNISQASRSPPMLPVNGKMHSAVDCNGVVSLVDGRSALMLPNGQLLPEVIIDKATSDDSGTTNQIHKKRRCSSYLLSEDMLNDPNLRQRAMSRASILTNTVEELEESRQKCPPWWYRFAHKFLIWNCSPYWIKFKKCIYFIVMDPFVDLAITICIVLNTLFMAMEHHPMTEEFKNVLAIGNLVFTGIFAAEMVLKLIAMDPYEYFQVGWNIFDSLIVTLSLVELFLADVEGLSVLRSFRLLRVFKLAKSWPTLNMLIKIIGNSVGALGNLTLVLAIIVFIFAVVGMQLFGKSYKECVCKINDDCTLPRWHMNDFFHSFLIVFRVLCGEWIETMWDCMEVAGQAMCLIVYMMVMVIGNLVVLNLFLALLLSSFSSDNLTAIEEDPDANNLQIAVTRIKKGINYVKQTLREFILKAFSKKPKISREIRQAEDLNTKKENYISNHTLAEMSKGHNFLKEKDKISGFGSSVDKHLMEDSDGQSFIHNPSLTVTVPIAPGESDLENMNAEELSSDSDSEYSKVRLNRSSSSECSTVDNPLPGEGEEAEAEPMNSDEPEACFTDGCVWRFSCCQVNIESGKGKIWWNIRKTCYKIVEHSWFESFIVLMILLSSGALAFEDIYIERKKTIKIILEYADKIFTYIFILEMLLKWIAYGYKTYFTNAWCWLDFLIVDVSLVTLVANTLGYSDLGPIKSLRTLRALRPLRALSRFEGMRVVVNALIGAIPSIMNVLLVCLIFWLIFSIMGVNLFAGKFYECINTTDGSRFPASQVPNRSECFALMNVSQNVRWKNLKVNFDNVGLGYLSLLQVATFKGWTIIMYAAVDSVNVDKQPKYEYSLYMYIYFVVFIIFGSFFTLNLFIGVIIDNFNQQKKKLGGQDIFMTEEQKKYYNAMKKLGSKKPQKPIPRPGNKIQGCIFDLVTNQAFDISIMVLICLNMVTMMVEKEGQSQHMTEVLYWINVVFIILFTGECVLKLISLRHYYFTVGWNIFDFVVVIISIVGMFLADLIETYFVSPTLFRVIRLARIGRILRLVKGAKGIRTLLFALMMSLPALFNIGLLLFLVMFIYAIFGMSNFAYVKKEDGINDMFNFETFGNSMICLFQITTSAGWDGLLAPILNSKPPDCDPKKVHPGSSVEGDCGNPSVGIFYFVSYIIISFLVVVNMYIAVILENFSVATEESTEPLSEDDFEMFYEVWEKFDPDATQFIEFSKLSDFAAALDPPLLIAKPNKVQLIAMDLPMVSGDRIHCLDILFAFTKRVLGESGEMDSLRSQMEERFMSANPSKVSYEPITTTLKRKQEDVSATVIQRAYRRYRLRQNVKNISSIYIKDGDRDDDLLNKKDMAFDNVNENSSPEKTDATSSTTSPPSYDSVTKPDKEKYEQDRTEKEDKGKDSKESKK
# measurementProtocol: Compound effects were measured on a partially inactivated state of the sodium channel. Cells were clamped to a holding potential yielding 20 to 50% inactivation. To elicit sodium current, channels were activated by pulsing to -10 mV for 20 msec. This voltage protocol was repeated at a rate of 0.1 Hz throughout the experiment.
# pIC50 per record follows
Would you please state pIC50, meaning minus log10 of the concentration in mol/L, as a bare number?

In the examples that follow, each entry is paired with its recorded pIC50.
Lab note: COc1cc(Oc2ccc(F)cc2)ccc1-n1c(=O)ccc2cc(S(=O)(=O)Nc3ccon3)ccc21 gave pIC50 of 7.31

Quick note, pIC50 for COc1cc(-c2ccc(Cl)c(C)c2)ccc1-n1c(=O)ccc2cc(S(=O)(=O)Nc3ncon3)ccc21 landed at 7.52

GET /value?item= COc1cc(OC)cc(-c2cc(OC)c(-n3c(=O)ccc4cc(S(=O)(=O)Nc5ccon5)ccc43)cc2F)c1 &field=pIC50 returns 7.92

Continuing:
Lookup result for COc1cc(-c2cc(F)cc(OC(F)F)c2)c(F)cc1-n1c(=O)ccc2cc(S(=O)(=O)Nc3ccon3)ccc21 ; measured pIC50: 7.96

Record COc1cc(-c2ccc(F)c(OC(F)F)c2)c(F)cc1-n1c(=O)ccc2cc(S(=O)(=O)Nc3ccon3)ccc21 , field pIC50: 7.66
